- targetOfAssay: EIF2AK3 (PERK) catalytic domain (amino acids 536-1116) (Homo sapiens (Human), UniProt Q9NZJ5)
- Sequence (Q9NZJ5 536-1116): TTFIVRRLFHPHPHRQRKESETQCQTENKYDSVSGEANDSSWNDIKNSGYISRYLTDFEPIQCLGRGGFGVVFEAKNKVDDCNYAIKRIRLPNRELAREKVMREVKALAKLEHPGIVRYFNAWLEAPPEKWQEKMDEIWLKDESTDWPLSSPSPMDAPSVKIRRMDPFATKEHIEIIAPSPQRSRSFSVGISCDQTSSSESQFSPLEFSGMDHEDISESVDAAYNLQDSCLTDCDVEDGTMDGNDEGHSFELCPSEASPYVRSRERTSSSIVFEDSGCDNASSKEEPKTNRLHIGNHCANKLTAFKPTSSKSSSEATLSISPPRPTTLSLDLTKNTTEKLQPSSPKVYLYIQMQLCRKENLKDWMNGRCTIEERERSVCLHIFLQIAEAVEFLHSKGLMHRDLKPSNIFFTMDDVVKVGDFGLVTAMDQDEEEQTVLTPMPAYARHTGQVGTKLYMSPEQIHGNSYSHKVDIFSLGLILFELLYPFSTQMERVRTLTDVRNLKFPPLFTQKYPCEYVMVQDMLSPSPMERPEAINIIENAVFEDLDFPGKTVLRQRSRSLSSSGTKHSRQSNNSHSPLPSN
- procedureSummary: PERK in vitro activity assay (isolated), TR-FRET kinase assay
- experimentalParameters: isolated PERK enzyme, 1.5 μM ATP, GFP-eIF2a substrate; read-out: Biochemical IC50
measurementKind: IC50

Use these answered entries as a reference point.
Lab book: IC50 of Cc1cc(NC(=O)C(O)c2cc(F)cc(F)c2)ccc1-c1cnc(N)c(C(=O)NCCO)c1 (stereo not shown) [Example 57] noted as 101 to 250 nM

The compound CCc1cc(NC(=O)C(O)c2cc(F)cc(F)c2)ccc1-c1cnc(N)c(C(=O)NC2CC2)c1 (stereo not shown) [Example 102] showed IC50 equal to 1 to 25 nM

Summary for this compound, "Cc1cc(NC(=O)Cc2cccc(F)c2)ccc1-c1cnc(N)c(C(=O)NC(C)C)c1" : IC50 is 51 to 100 nM

Continuing:
// field: IC50; key: Cc1c(-c2cnc(N)c(C(=O)NC3CC3)c2)ccc(NC(=O)C(O)c2cc(F)cc(F)c2)c1F (stereo not shown) [Example 119] ; value = 1 to 25 nM

Measured IC50, CNC(=O)c1cc(-c2ccc(NC(=O)C(O)c3cc(F)cc(F)c3)cc2C)cnc1N (single isomer, unassigned) [Example 11] : 501 to 1000 nM

Just so you know, measured IC50 for CNc1ccc(-c2ccc(NC(=O)C(O)c3cc(F)cc(F)c3)cc2C)cn1 (stereo not shown) [Example 172] came out at 51 to 100 nM

The compound listed as "Cc1cc(NC(=O)Cc2cccc3ccccc23)ccc1-c1cnc(N)c(C(=O)NC(C)C)c1" has a reported IC50 of 1 to 25 nM

// IC50 lookup, compound = CNc1ncc(-c2ccc(NC(=O)C(O)c3cc(F)cc(F)c3)cc2C)cc1C(=O)NC(C)C (stereo not shown) [Example 175] , result: 1000 to 2000 nM

# IC50 (compound: "COc1ccccc1CC(=O)Nc1ccc(-c2cnc(N)c(C(=O)NC(C)C)c2)c(C)c1" ) is 101 to 250 nM

Noted for Cc1cc(NC(=O)C(O)c2cc(F)cc(F)c2)ccc1-c1cnc(N)c(C(=O)NC(C)C)n1 (stereo not shown) [Example 133] : its IC50 reads 51 to 100 nM
